Origin of values: ChEMBL document CHEMBL3286145

System: Saccharomyces cerevisiae
Test: Antiprion activity against yeast STRg6 prion protein [PSI+] at 50 nmole by colorimetric assay
Calls of active or inactive are those of the source. The calls are words filed in the database; no cut-off is given here.
Your answer must be one of the following: t for active, f for inactive

Before answering, review these 5 worked examples.
>  <Molecule>
Nc1nc2ccccc2c2ccc([N+](=O)[O-])cc12

>  <Measured target>
Saccharomyces cerevisiae

>  <Label value>
t

$$$$
>  <Molecule>
Nc1nc2ncccc2c2ccccc12

>  <Measured target>
Saccharomyces cerevisiae

>  <Label value>
f

$$$$
>  <Molecule>
Nc1nc2ccccc2c2cc([N+](=O)[O-])ccc12

>  <Measured target>
Saccharomyces cerevisiae

>  <Label value>
t

$$$$
>  <Molecule>
[N-]=[N+]=Nc1ccc2c(c1)c(N)nc1ccccc12

>  <Measured target>
Saccharomyces cerevisiae

>  <Label value>
t

$$$$
>  <Molecule>
Cc1ccc2c(N)nc3ccccc3c2n1

>  <Measured target>
Saccharomyces cerevisiae

>  <Label value>
f

$$$$

Enquiry: Give the logged outcome of this assay for the following molecule: Nc1cccc2c1c(N)nc1ccccc12
Return: t

Enquiry: Give the logged outcome of this assay for the following molecule: Nc1nc2ccccc2c2cc(F)ccc12
Return: t

Enquiry: Give the logged outcome of this assay for the following molecule: Cc1ccc2c(N)nc3ccccc3c2c1
Return: t

Enquiry: Give the logged outcome of this assay for the following molecule: COc1cc(OC)c2nc(N)c3ccccc3c2c1
Return: t

---

Test system: Saccharomyces cerevisiae
Assay: Antiprion activity against yeast SB34 prion protein [URE3] at 50 nmole by colorimetric assay
Active and inactive are the calls of the source. The calls are words filed in the database; no cut-off is given here.
Your answer must be one of the following: True for active, False for inactive

>  <Molecule>
Cc1ccc2c(N)nc3ccccc3c2n1

>  <Label value>
False

$$$$
>  <Molecule>
Nc1nc2ccccc2c2c1CCCC2

>  <Label value>
True

$$$$
>  <Molecule>
COc1cc(OC)c2nc(N)c3ccccc3c2c1

>  <Label value>
False

$$$$

Enquiry: Give the logged outcome of this assay for the following molecule: CC[C@H](CO)Nc1nc2ccccc2c2ccccc12
Return: False

Enquiry: Give the logged outcome of this assay for the following molecule: Nc1nc2ccccc2c2ccc(C(F)(F)F)cc12
Return: True

Enquiry: Give the logged outcome of this assay for the following molecule: Nc1nc2ccccc2c2cc(F)ccc12
Return: True

Enquiry: Give the logged outcome of this assay for the following molecule: Nc1nc2ccccc2c2ccc(F)cc12
Return: True

Enquiry: Give the logged outcome of this assay for the following molecule: Nc1nc2ccccc2c2ccc([N+](=O)[O-])cc12
Return: True

Enquiry: Give the logged outcome of this assay for the following molecule: Nc1nc2cccnc2c2ccccc12
Return: False

Enquiry: Give the logged outcome of this assay for the following molecule: Nc1nc2ccccc2c2cnccc12
Return: False

Enquiry: Give the logged outcome of this assay for the following molecule: [N-]=[N+]=Nc1ccc2c(c1)c(N)nc1ccccc12
Return: True

Enquiry: Give the logged outcome of this assay for the following molecule: Nc1nc2ccccc2c2cccc([N+](=O)[O-])c12
Return: True

Enquiry: Give the logged outcome of this assay for the following molecule: CN[S+]([O-])c1ccc2c(N)nc3ccccc3c2c1 (stereo not given)
Return: False

Enquiry: Give the logged outcome of this assay for the following molecule: Nc1nc2ccccc2c2cccc(F)c12
Return: True

Enquiry: Give the logged outcome of this assay for the following molecule: Cc1ccc2nc(N)c3ccccc3c2c1
Return: False

Enquiry: Give the logged outcome of this assay for the following molecule: Nc1cccc2c1c(N)nc1ccccc12
Return: True

Enquiry: Give the logged outcome of this assay for the following molecule: Nc1nc2ccccc2c2cc([N+](=O)[O-])ccc12
Return: False

Enquiry: Give the logged outcome of this assay for the following molecule: Nc1ccc2c(c1)c(N)nc1ccccc12
Return: False

---

System: Saccharomyces cerevisiae
Assay: Antiprion activity against yeast STRg6 prion protein [PSI+] at 50 nmole by colorimetric assay
The source made the active and inactive calls. The calls are words filed in the database; no cut-off is given here.
Your answer must be one of the following: active, inactive

Before answering, review these 2 worked examples.
>  <Compound>
Nc1nc2ccccc2c2ccc(C(F)(F)F)cc12

>  <Label value>
active

$$$$
>  <Compound>
Nc1nc2ccncc2c2ccccc12

>  <Label value>
inactive

$$$$

Enquiry: Give the logged outcome of this assay for the following compound: Nc1nc2ccccc2c2cccc(F)c12
Return: active

Enquiry: Give the logged outcome of this assay for the following compound: Nc1nc2ccccc2c2ccccc12
Return: active

Enquiry: Give the logged outcome of this assay for the following compound: CN[S+]([O-])c1ccc2c(N)nc3ccccc3c2c1 (stereo unspecified)
Return: inactive

Enquiry: Give the logged outcome of this assay for the following compound: Nc1nc2ccc(OC(F)(F)F)cc2c2ccccc12
Return: active

Enquiry: Give the logged outcome of this assay for the following compound: Cc1ccc2nc(N)c3ccccc3c2c1
Return: active

Enquiry: Give the logged outcome of this assay for the following compound: COc1ccc(CCNc2nc3ccccc3c3ccccc23)cc1OC
Return: inactive

Enquiry: Give the logged outcome of this assay for the following compound: Nc1nc2cccnc2c2ccccc12
Return: inactive

Enquiry: Give the logged outcome of this assay for the following compound: Nc1nc2ccccc2c2ccc(F)cc12
Return: active

---

Tested on: Saccharomyces cerevisiae
Assay: Antiprion activity against yeast SB34 prion protein [URE3] at 50 nmole by colorimetric assay
Active and inactive are the calls of the source. The rule behind the calls is not given here.
Reported property: antiprion activity (active/not active)

Solved cases (5 shown):
>  <Smi>
Nc1nc2ccccc2c2c1CC=CC2

>  <Reported property>
antiprion activity (active/not active)

>  <Readout value>
Active

$$$$
>  <Smi>
Nc1nc2ncccc2c2ccccc12

>  <Reported property>
antiprion activity (active/not active)

>  <Readout value>
inactive

$$$$
>  <Smi>
Nc1nc2ccncc2c2ccccc12

>  <Reported property>
antiprion activity (active/not active)

>  <Readout value>
inactive

$$$$
>  <Smi>
Cc1ccc2c(N)nc3ccccc3c2c1

>  <Reported property>
antiprion activity (active/not active)

>  <Readout value>
Active

$$$$
>  <Smi>
COc1ccc(CCNc2nc3ccccc3c3ccccc23)cc1OC

>  <Reported property>
antiprion activity (active/not active)

>  <Readout value>
inactive

$$$$

Enquiry: For Nc1nc2ccccc2c2ccccc12 , what is its reported antiprion activity (active/not active)?
Return: Active

Enquiry: For Nc1nc2ccc(OC(F)(F)F)cc2c2ccccc12 , what is its reported antiprion activity (active/not active)?
Return: inactive

---

Tested on: Saccharomyces cerevisiae
Assay: Antiprion activity against yeast STRg6 prion protein [PSI+] at 50 nmole by colorimetric assay
Calls of active or inactive are those of the source. No cut-off for these calls is given here.
Your answer must be one of the following: y (active), n (inactive)

Before answering, review these 4 worked examples.
>  <Smi>
Nc1nc2ccccc2c2c1CCCC2

>  <Label value>
y

$$$$
>  <Smi>
Nc1nc2ccccc2c2cccc([N+](=O)[O-])c12

>  <Label value>
y

$$$$
>  <Smi>
CC[C@H](CO)Nc1nc2ccccc2c2ccccc12

>  <Label value>
n

$$$$
>  <Smi>
Nc1ccc2c(c1)c(N)nc1ccccc12

>  <Label value>
y

$$$$

Enquiry: Give the logged outcome of this assay for the following molecule: Nc1nc2ccccc2c2cnccc12
Return: n

Enquiry: Give the logged outcome of this assay for the following molecule: Nc1nc2ccccc2c2c1CC=CC2
Return: y
